Hi there, I'd appreciate the recorded CC50 at 72 h for every entry that follows.
- EXPERIMENT_NOTES: Cytotoxicity against human TZM-b1 cells after 3 days by XTT assay
- Assay type: cell-based
- MEASUREMENT_SETUP: TZM-b1 cells

// below: answered compounds
Cc1nc(C(NC(=O)C(=O)Nc2ccc(F)cc2)C2CCCCN2)sc1CCO (mixture of isomers) : > 88 µM
Cc1ccc(NC(=O)C(=O)NC(c2nc(C)c(CCO)s2)C2CCCCN2)cc1F (mixture of isomers) : > 85 µM
Cc1nc(C(NC(=O)C(=O)Nc2ccc(C(F)(F)F)cc2)C2CCCCN2)sc1CCO (centres undefined) : > 74 µM

Batch lookup, CC50 at 72 h per entry.
1. Cc1nc(C(NC(=O)C(=O)NC2CCCCCC2)C2CCCCN2)sc1CCO (mixture of isomers)
2. Cc1nc(C(NC(=O)C(=O)Nc2ccc(F)cc2F)C2CCCCN2)sc1CO (mixture of isomers)
3. Cc1nc(C(NC(=O)C(=O)Nc2ccc(Cl)c(F)c2)C2CCCCN2)sc1CCO (mixture of isomers)

[A]
1. > 88 µM
2. > 87 µM
3. 61 µM

###

- EXPERIMENT_NOTES: Inhibition of X4-tropic HIV1 3B gp120-mediated entry into human MT2 cells assessed as Inhibition of p24 production incubated overnight followed by compound wash-out measured after 4 days post-infection by multi-cycle neutralization assay
- Format: cell-based
- MEASUREMENT_SETUP: Human immunodeficiency virus 1, 3B, MT2, 96 h
QUANTITY: pIC50
Numbers only, as −log10 of the molar value.

// below: answered molecules
Cc1nc(C(NC(=O)C(=O)Nc2ccc(F)cc2)C2CCCCN2)sc1CCO (mixture of isomers) : 4.67
CC(=O)c1ccc(NC(=O)C(=O)NC(c2nc(C)c(CO)s2)C2CCCCN2)cc1 (mixture of isomers) : 3.97

[Q] // query pIC50 value for entry Cc1nc(C(NC(=O)C(=O)Nc2ccc(F)c(F)c2)C2CCCCN2)sc1CCO (mixture of isomers)
[A] 4.62

###

- System: MT2
- EXPERIMENT_NOTES: Cytotoxicity against human MT2 cells after 4 days by XTT assay
- Type: cell-based
- MEASUREMENT_SETUP: mt2, 96 h
QUANTITY: CC50

Batch lookup, CC50 per entry.
1. Cc1nc(C(NC(=O)C(=O)Nc2ccc(F)cc2F)C2CCCCN2)sc1CCO (mixture of isomers)
2. CCn1cc(NC(=O)C(=O)Nc2ccc(Cl)cc2)cn1
3. Cc1nc(C(NC(=O)C(=O)Nc2ccc(Cl)cc2)C2CCCNC2)sc1CCO (mixture of isomers)
4. CC(=O)c1ccc(NC(=O)C(=O)NC(c2nc(C)c(CO)s2)C2CCCCN2)cc1 (mixture of isomers)

[A]
> 105 µM
10.7 µM
> 78.5 µM
> 107 µM

Batch lookup, CC50 per entry.
1. CNCC(NC(=O)C(=O)Nc1ccc(Cl)cc1)c1nc(C)c(CCO)s1 (racemic)
2. Cc1nc(C(NC(=O)C(=O)Nc2ccc(F)cc2F)C2CCCCN2)sc1CO (mixture of isomers)
3. CC(=O)c1ccc(NC(=O)C(=O)NC(c2nc(C)c(CCO)s2)C2CCCCN2)cc1 (mixture of isomers)
4. Cc1nc(C(NC(=O)C(=O)Nc2ccc(Cl)cc2)C2CCCCN2)sc1CCO (mixture of isomers)
5. Cc1nc(C(NC(=O)C(=O)Nc2ccc(Cl)cc2)C2CCCNC2)sc1CO (mixture of isomers)
6. Cc1nc(C(NC(=O)C(=O)Nc2ccc(Cl)cc2)C2CCCCN2)sc1CO (mixture of isomers)
7. Cc1nc(C(NC(=O)C(=O)Nc2ccc(Cl)cc2)C2CCNCC2)sc1CCO (racemic)

[A]
1: > 43 µM; 2: > 110 µM; 3: > 48.3 µM; 4: > 62 µM; 5: > 81 µM; 6: > 108 µM; 7: > 78.5 µM

Batch lookup, CC50 per entry.
1. Cc1ccc(NC(=O)C(=O)NC(c2nc(C)c(CO)s2)C2CCCCN2)c(F)c1 (mixture of isomers)
2. Cc1nc(C(NC(=O)C(=O)Nc2ccc(C(F)(F)F)cc2)C2CCCCN2)sc1CCO (stereo unspecified)
3. Cc1nc(C(NC(=O)C(=O)Nc2ccc(Cl)cc2)C2CCNCC2)sc1CO (racemic)
4. Cc1nc(C(NC(=O)C(=O)Nc2ccc(Cl)c(F)c2)C2CCCCN2)sc1CCO (mixture of isomers)
5. Cc1nc(C(NC(=O)C(=O)Nc2ccc(F)cc2)C2CCCCN2)sc1CO (mixture of isomers)

[A]
1. > 109 µM
2. > 39 µM
3. > 81 µM
4. > 41 µM
5. > 113 µM

###

Hi there, I'd appreciate the recorded CC50 at 72 h for every entry that follows.
- EXPERIMENT_NOTES: Cytotoxicity against human TZM-b1 cells after 3 days by XTT assay
- Type: cell-based
- MEASUREMENT_SETUP: TZM-b1 cells

// below: answered compounds
CC(=O)c1ccc(NC(=O)C(=O)NC(c2nc(C)c(CO)s2)C2CCCCN2)cc1 (mixture of isomers) : > 86 µM
Cc1ccc(NC(=O)C(=O)NC(c2nc(C)c(CO)s2)C2CCCCN2)cc1F (mixture of isomers) : > 88 µM
Cc1nc(C(NC(=O)C(=O)Nc2ccc(F)c(Cl)c2)C2CCCCN2)sc1CCO (mixture of isomers) : > 75.8 µM

# evaluate next
[Q] // query CC50 at 72 h value for entry Cc1nc(C(NC(=O)C(=O)Nc2ccc(C(F)(F)F)cc2)C2CCCCN2)sc1CO (mixture of isomers)
[A] > 75.5 µM

###

- EXPERIMENT_NOTES: Cytotoxicity against human MT2 cells after 4 days by XTT assay
- Assay type: cell-based
- MEASUREMENT_SETUP: MT2 cells
Hi there, I'd appreciate the recorded CC50 at 96 h for every entry that follows.
Answers are plain numbers, in µM.

Cc1nc(C(NC(=O)C(=O)Nc2ccc(Cl)cc2)C2CCCCN2C)sc1CCO (mixture of isomers) : 88

Batch lookup, CC50 at 96 h per entry.
1. Cc1nc(C(NC(=O)C(=O)Nc2ccc(Cl)cc2)C2CCCN2)sc1CO (mixture of isomers)
2. Cc1nc(C(NC(=O)C(=O)Nc2ccc(F)cc2)C2CCCCN2)sc1CCO (mixture of isomers)
3. Cc1nc(C(NC(=O)C(=O)Nc2ccc(Cl)c(F)c2)C2CCCCN2)sc1CO (mixture of isomers)
4. Cc1ccc(NC(=O)C(=O)NC(c2nc(C)c(CCO)s2)C2CCCCN2)cc1F (mixture of isomers)
5. Cc1nc(C(NC(=O)C(=O)NC2CCCCCC2)C2CCCCN2)sc1CCO (mixture of isomers)
6. Cc1nc(C(NC(=O)C(=O)Nc2ccc(Cl)cc2)C2CCCN2)sc1CCO (mixture of isomers)

[A]
[45, 109, 77.8, 85, 60, 42]

Batch lookup, CC50 at 96 h per entry.
1. CC1(C)CC(NC(=O)C(=O)Nc2ccc(Cl)cc2)CC(C)(C)N1
2. Cc1nc(C(NC(=O)C(=O)Nc2ccc(F)c(Cl)c2)C2CCCCN2)sc1CCO (mixture of isomers)

[A]
1. 150
2. 94.7

###

- EXPERIMENT_NOTES: Inhibition of X4-tropic HIV1 3B gp120-mediated entry into human MT2 cells assessed as Inhibition of p24 production incubated overnight followed by compound wash-out measured after 4 days post-infection by multi-cycle neutralization assay
- Type: cell-based
- MEASUREMENT_SETUP: Human immunodeficiency virus 1, 3B, MT2, 96 h
pIC50: −log10 of the molar value.
Binary call on pIC50: rule met from 5 upward, rule not met beneath that.

Cc1ccc(NC(=O)C(=O)NC(c2nc(C)c(CO)s2)C2CCCCN2)c(F)c1 (mixture of isomers) : rule not met

[Q] Quick check, pIC50 >= 5? Cc1nc(C(NC(=O)C(=O)Nc2ccc(C(F)(F)F)cc2)C2CCCCN2)sc1CCO (centres undefined)
[A] rule not met

[Q] Quick check, pIC50 >= 5? Cc1ccc(NC(=O)C(=O)NC(c2nc(C)c(CO)s2)C2CCCCN2)cc1F (mixture of isomers)
[A] rule met

[Q] Quick check, pIC50 >= 5? Cc1nc(C(NC(=O)C(=O)Nc2ccc(Cl)c(F)c2)C2CCCCN2)sc1CCO (mixture of isomers)
[A] rule met

[Q] Quick check, pIC50 >= 5? CC(=O)N1CCCCC1C(NC(=O)C(=O)Nc1ccc(Cl)cc1)c1nc(C)c(CCO)s1 (mixture of isomers)
[A] rule not met

[Q] Quick check, pIC50 >= 5? Cc1nc(C(NC(=O)C(=O)Nc2ccc(F)c(Cl)c2)C2CCCCN2)sc1CCO (mixture of isomers)
[A] rule not met

[Q] Quick check, pIC50 >= 5? Cc1nc(C(NC(=O)C(=O)Nc2ccc(Cl)cc2)C2CCCCN2C)sc1CCO (mixture of isomers)
[A] rule not met

[Q] Quick check, pIC50 >= 5? Cc1nc(C(NC(=O)C(=O)Nc2ccc(F)cc2)C2CCCCN2)sc1CO (mixture of isomers)
[A] rule not met

[Q] Quick check, pIC50 >= 5? Cc1nc(C(NC(=O)C(=O)Nc2ccc(F)c(F)c2)C2CCCCN2)sc1CO (mixture of isomers)
[A] rule not met
